IC50, ALKBH5 (Homo sapiens), per-entry values.

Could you tell me which IC50 is on file for COc1ccc2cc(-c3cncnc3)ccc2c1 ?
> 40 µM

Could you tell me which IC50 is on file for COc1ccc2cc(-c3cnc(N)nc3)ccc2c1 ?
> 40 µM

These measurements were taken from paper PMC7901021.
